Numbers sourced from patent EP4725969A1.

# TARGET ENTITY: T1, recombinant human HER2 extracellular domain protein (human, UniProt P04626 23-652)
# T1 construct: range 23-652; Range is printed for the immunogen/panning protein; also called ErbB2; recombinant HER2 protein
# ASSAY OVERVIEW: BLI, Protein A capture
Listed binders paired with reported pKd
On this scale, pKd is minus log10 of a concentration expressed in M (mol/L).

Consider the worked cases shown below.
* Hu2117HK-Mu29 (Fc fusion, scFv-hIgG1 Fc; not shown: human IgG1 Fc) scFv: EVQLVESGGGLVQPGGSLRLSCAASGFTYSSYGMSWVRQAPGKGLEWVASISGGGSYTKYPDSVKGRFTISRDNSKNTLYLQMNSLRAEDTAVYYCARDYAGFFDVWGQGTLVTVSSGGGGSGGGGSGGGGSDIQMTQSPSSLSASVGDRVTITCRSSQSLLHSNGNTYLHWYQQKPGKAPKLLIYKVSNRFSGVPSRFSGSGSGTDFTLTISSLQPEDFATYFCSQSTHVPYTFGQGTKVEIK | 8.12
* Hu2117HK-Mu49 (Fc fusion, scFv-hIgG1 Fc; not shown: human IgG1 Fc) scFv: EVQLVESGGGLVQPGGSLRLSCAASGFTYSSYGMSWVRQAPGKGLEWVASISGGGSYTKYPDSVKGRFTISRDNSKNTLYLQMNSLRAEDTAVYYCARDYSGFFDVWGQGTLVTVSSGGGGSGGGGSGGGGSDIQMTQSPSSLSASVGDRVTITCRSSQSLVHSNGNTYLHWYQQKPGKAPKLLIYKVSNRFSGVPSRFSGSGSGTDFTLTISSLQPEDFATYFCSQSTHVPYTFGQGTKVEIK | 7.93
* Hu2117HK-Mu44 (Fc fusion, name in Kabat numbering, scFv-hIgG1 Fc; not shown: human IgG1 Fc) scFv: EVQLVESGGGLVQPGGSLRLSCAASGFTYSSYGMSWVRQAPGKGLEWVASISGGGSYTKYPDSVKGRFTISRDNSKNTLYLQMNSLRAEDTAVYYCARDYEGFFDVWGQGTLVTVSSGGGGSGGGGSGGGGSDIQMTQSPSSLSASVGDRVTITCRSSQSLVHSNGNTYLHWYQQKPGKAPKLLIYKVSNRFSGVPSRFSGSGSGTDFTLTISSLQPEDFATYFCSQSTHVPYTFGQGTKVEIK | 7.37
* Hu2117HK-Mu18 (Fc fusion, name in Kabat numbering, scFv-hIgG1 Fc; not shown: human IgG1 Fc) scFv: EVQLVESGGGLVQPGGSLRLSCAASGFTYSSYGMSWVRQAPGKGLEWVASISGGGSYTKYPDSVKGRFTISRDNSKNTLYLQMNSLRAEDTAVYYCARDYAGFFDVWGQGTLVTVSSGGGGSGGGGSGGGGSDIQMTQSPSSLSASVGDRVTITCRSSQSLVHSLGNTYLHWYQQKPGKAPKLLIYKVSNRFSGVPSRFSGSGSGTDFTLTISSLQPEDFATYFCSQSTHVPYTFGQGTKVEIK | 7.94

// switching to the query binder
(Q) Endpoint output: pKd of Hu2117HK-Mu02 (Fc fusion, scFv-hIgG1 Fc; not shown: human IgG1 Fc) scFv: EVQLVESGGGLVQPGGSLRLSCAASGFTYSSYGMSWVRQAPGKGLEWVASISGGGSYTKYPDSVKGRFTISRDNSKNTLYLQMNSLRAEDTAVYYCARDYAGFFDVWGQGTLVTVSSGGGGSGGGGSGGGGSDIQMTQSPSSLSASVGDRVTITCRSSQSLVHSNGNTYLHWYQQKPGKAPKLLIYKVSNRFSGVPSRFSGSGSGTDFTLTISSLQPEDFAVYFCSQSTHVPYTFGQGTKVEIK . Value?
(A) 8.08
